- Tested on: CAKI-1 renal
- ASSAY_COMMENT: NCI-60 one-dose screen, 48 h (100 = growth as untreated, 0 = no growth, -100 = all killed)
- CONDITION: 10 µM unless noted
The panel holds about 83,000 compounds, 20% with a hit somewhere; the sample as a whole holds those more often.
Hi there, I'd appreciate the recorded growth for every entry that follows.
Dear colleague, please return just the value in %, with no unit written.

Ask: Requested field: growth. Item: CSc1ccc(/C(=N/N=C(N)N)c2ccc(F)cc2)cc1
Result: 15.6

Ask: Requested field: growth. Item: COc1ccc(N2CCN(C3=C(Cl)C(=O)c4ncccc4C3=O)CC2)cc1
Result: 32.3

Ask: Requested field: growth. Item: C#CCN(C)CCCOc1ccc(NCc2ccc(C(=O)NO)cc2)cc1Cl
Result: 8.63

Ask: Requested field: growth. Item: CSc1ccc(C(=NNS(=O)(=O)c2ccc(C)cc2)c2ccc(Cl)cc2)cc1
Result: 86.2

Ask: Requested field: growth. Item: CCOP(=O)(OCC)OC[C@]12CC[C@@H](C)[C@H](C)C1C1=CC[C@@H]3[C@@]4(C)CCCNC(C)(C)[C@@H]4CC[C@@]3(C)[C@]1(C)CC2 (some centres undefined)
Result: 13

Ask: Requested field: growth. Item: N#Cc1cccc(-c2cc(-c3ccc4c(c3)OCCO4)[nH]n2)c1
Result: 35.8

Ask: Requested field: growth. Item: O=c1[nH][nH]c(-c2ccc(F)cc2)c1-c1nc2ccccc2s1
Result: 87.1

Ask: Requested field: growth. Item: COc1ccc2c(c1)c(-c1nc(N)nnc1-c1c[nH]c3ccccc13)cn2C
Result: 31.1

Ask: Requested field: growth. Item: COc1cc(OC)cc(-c2cc(-c3c[nH]c4ccccc34)nc(-c3c[nH]c4ccccc34)c2C#N)c1
Result: 91

Ask: Requested field: growth. Item: CC(C)C(/C=C/c1[nH]ncc1-c1cc(Cl)ccc1O)N1CCOCC1 (centres undefined)
Result: 69.7

Ask: Requested field: growth. Item: N/C(=N\C(N)=N\c1nc2ccccc2s1)c1ccc(Cl)cc1
Result: 65.1

Ask: Requested field: growth. Item: C#CCN(C)CCCOc1ccc(NC(=O)CCCCCCC(=O)NO)cc1Cl
Result: 17.9

Ask: Requested field: growth. Item: N#Cc1c(-c2ccc(F)cc2)cc(-c2c[nH]c3ccccc23)nc1-c1c[nH]c2ccccc12
Result: 92.5

Ask: Requested field: growth. Item: CC1(C)CC[C@]2(C(=O)O)CC[C@]3(C)C(=CC[C@@H]4[C@@]5(C)CC[C@H](NOCCCN)C(C)(C)[C@@H]5CC[C@]43C)[C@@H]2C1
Result: 93.7

Ask: Requested field: growth. Item: N#Cc1c(-c2cccs2)cc(-c2cnccn2)nc1SCC(=O)N/N=C/c1ccc(Cl)cc1
Result: 90.8

Ask: Requested field: growth. Item: O=S1SC(c2ccccc2)=NN1c1cc(F)cc(F)c1 (centres undefined)
Result: 52.4

Ask: Requested field: growth. Item: CCOC(=O)c1cccc(NC2=C(Cl)C(=O)c3nc(C)ccc3C2=O)c1
Result: 108

Ask: Requested field: growth. Item: Cn1cc(-c2nc(N)nnc2-c2c[nH]c3ccc(Br)cc23)c2cc(F)ccc21
Result: 67.8

Ask: Requested field: growth. Item: C#Cc1cc(OC)c(C(=O)Nc2ccc(F)cc2C(=O)Nc2cccc(S(=O)(=O)C(F)(F)F)c2)cn1
Result: -11.4

###

- Tested on: NCI-H460 lung
- ASSAY_COMMENT: NCI-60 one-dose screen, 48 h
- CONDITION: 10 µM unless noted
About 83,000 compounds went through this panel and 20% of them were active in at least one assay; those are over-represented in the sample as a whole. The source made the active and inactive calls. How the source made its calls: active means growth percent below 10; inactive means the rest.
Can you answer with just one of these options? active, inactive

Ask: For this compound, state the assay outcome: NCCNC(=O)c1cccc(COc2ccccc2NC(=O)c2cc(Cl)c(Cl)[nH]2)c1
Result: inactive

Ask: For this compound, state the assay outcome: O=c1nc(Nc2ccc([N+](=O)[O-])cc2O)sc2ccccc12
Result: inactive

Ask: For this compound, state the assay outcome: Cc1ccc2c(n1)C(=O)C(Cl)=C(Nc1ccc(C)c(C)c1)C2=O
Result: inactive

Ask: For this compound, state the assay outcome: Nn1c(=O)n(-c2cccc(C(F)(F)F)c2)c(=O)c2cc(-c3ccc(F)cc3F)ccc21
Result: active

Ask: For this compound, state the assay outcome: CCOC(=O)Nc1ccc2c(ccn2C(=O)c2cccc(F)c2)c1
Result: inactive

###

- Tested on: NCI/ADR-RES ovarian
- ASSAY_COMMENT: NCI-60 one-dose screen, 48 h
- CONDITION: 10 µM unless noted
This is part of a sample that, as a whole, favours compounds with a hit. Of some 83,000 tested, about 20% had one in any assay. Calls of active or inactive are those of the source. Rule for the calls: active = growth percent below 10; inactive = the rest.
Can you answer with just one of these options? yes (1) = active, no (0) = inactive

Ask: For this molecule, state the assay outcome: Cc1ccc(/C(N)=N/C(N)=N/c2nc3ccccc3s2)cc1
Result: no (0)

Ask: For this molecule, state the assay outcome: COc1cc2c3c(cc4c5c(ccc4c3c1OC)OCO5)N(CCN(C)C)C2=O
Result: yes (1)

Ask: For this molecule, state the assay outcome: Cc1ccc2c(n1)C(=O)C(Cl)=C(Nc1cccc(C)c1C)C2=O
Result: yes (1)

Ask: For this molecule, state the assay outcome: Cc1[nH]c(C(=O)Nc2ccccc2OCc2cccc(C(=O)NC3CCNC3)c2)c(Cl)c1Cl (stereo not given)
Result: no (0)

Ask: For this molecule, state the assay outcome: N#C/C(=C\c1cccc2c1OCO2)C(=O)Nc1sc2c(c1C#N)CCCC2
Result: no (0)

###

- Tested on: OVCAR-8 ovarian
- ASSAY_COMMENT: NCI-60 one-dose screen, 48 h (100 = growth as untreated, 0 = no growth, -100 = all killed)
- CONDITION: 10 µM unless noted
Compounds without any hit were thinned out: in the full panel of roughly 83,000, 20% have a hit. Activity calls are given as the source filed them. The calls were made as follows: active = growth percent below 10; inactive = the rest.
Hi there, I'd appreciate the recorded growth for every entry that follows.

Ask: Requested field: growth. Item: Cc1nc(N)sc1-c1csc(Nc2ccc(C(F)(F)F)cc2)n1
Result: 49.4% (inactive)

Ask: Requested field: growth. Item: CNC(=O)Nc1ccc(Nc2cc(-c3ccc(-n4cccn4)cc3)[nH]n2)c(C)c1
Result: 102% (inactive)

Ask: Requested field: growth. Item: CC(C)=CCC[C@](C)(O)[C@H]1CC[C@]2(C)[C@@H]1CC[C@@H]1[C@@]3(C)CC[C@H](N)C(C)(C)[C@@H]3CC[C@]12C
Result: 98.1% (inactive)

Ask: Requested field: growth. Item: N/C(=N\C(N)=N\c1nc2ccccc2s1)c1ccc(Cl)cc1
Result: 79.5% (inactive)

Ask: Requested field: growth. Item: Fc1cccc(Cl)c1/C=N/Nc1nc(N/N=C/c2c(F)cccc2Cl)nc(N2CCCCC2)n1
Result: 25.8% (inactive)

Ask: Requested field: growth. Item: O=C(CCCCCC/C=C\c1csc(Br)n1)NO
Result: 76% (inactive)

Ask: Requested field: growth. Item: CCc1cc(OC(=O)N2CCC(N3CCCCC3)CC2)ccc1Nc1cc(-c2ccc(-n3cccn3)cc2)[nH]n1
Result: 86.2% (inactive)

Ask: Requested field: growth. Item: COc1ccc(-c2cnc(NC(=O)CCCCCCNC(=O)C(O)(O)C(F)(F)F)s2)cc1
Result: -3.57% (active)

Ask: Requested field: growth. Item: COc1cc(OC)cc(-c2cc(-c3c[nH]c4ccccc34)nc(-c3c[nH]c4ccccc34)c2C#N)c1
Result: 102% (inactive)

###

- Test system: M14 melanoma
- ASSAY_COMMENT: NCI-60 one-dose screen, 48 h (100 = growth as untreated, 0 = no growth, -100 = all killed)
- CONDITION: 10 µM unless noted
Compounds without any hit were thinned out: in the full panel of roughly 83,000, 20% have a hit.
ENDPOINT_NAME: growth (%)
Dear colleague, please return just the value in %, with no unit written.

Ask: Requested field: growth. Item: CC(C)NC(=O)c1cc(-c2ccc(NC(=O)Nc3ccc(F)cc3)cc2)nc2cccnc12
Result: 102

Ask: Requested field: growth. Item: Cc1ccc(NC2=C(Cl)C(=O)c3nc(C)ccc3C2=O)c(C)c1
Result: -58.3

Ask: Requested field: growth. Item: COc1ccc(C2C(C#N)=C(/N=C/c3ccc(Cl)cc3)Oc3c2sc2c(C)cccc32)cc1 (stereo not given)
Result: 0.955

Ask: Requested field: growth. Item: Cc1ccc(CSC2=C(Cl)CN(c3ccc(Cl)cc3)C2=O)cc1
Result: 107

Ask: Requested field: growth. Item: N#C/C(=N\Nc1ccc(F)cc1)C(=O)Nc1cc(-c2ccccc2)nn1-c1ccccc1
Result: 18.3

Ask: Requested field: growth. Item: CC(C)(C)c1cc(NC(=O)Nc2ccc(-c3cn4c5c(sc4n3)CCc3c[nH]cc3-5)cc2)no1
Result: 6.95

Ask: Requested field: growth. Item: O=C(Nc1ccccc1)Nc1nc2ccc([N+](=O)[O-])cc2[nH]1
Result: 58.2

Ask: Requested field: growth. Item: CCCCSC1=C(Cl)CN(c2ccccc2)C1=O
Result: 103

Ask: Requested field: growth. Item: CC(Nc1ncnc2ccc(-c3cnc4cnccn34)cc12)c1ccccc1 (stereo not given)
Result: 77.8

Ask: Requested field: growth. Item: Cn1cc(-c2nn3cc(-c4ccncc4)nc3s2)c2cc(F)ccc21
Result: 93.4

Ask: Requested field: growth. Item: CCC1=Cc2c(OC)cccc2OC12C=Cc1c(OC)cccc1O2 (stereo not given)
Result: 6.53

Ask: Requested field: growth. Item: CN1CCN(c2ccc(Nc3nc(NCCCNS(=O)(=O)c4ccc(Cl)cc4)c4sccc4n3)cc2)CC1
Result: -60.4

Ask: Requested field: growth. Item: CCN(CC)S(=O)(=O)c1ccc(-c2nc(C(Cl)Cl)nc3cc(-c4ccc(F)cc4)nn23)cc1
Result: 47.1

Ask: Requested field: growth. Item: O=C(CCCCCCN1CC(=O)N2[C@@H](c3ccccc3Br)c3[nH]c4ccccc4c3C[C@H]2C1=O)NO
Result: 42.1

Ask: Requested field: growth. Item: COc1ccc2[nH]cc(-c3nn4cc(-c5ccncc5)nc4s3)c2c1
Result: 82.8

Ask: Requested field: growth. Item: CNC(=O)c1cc(Oc2ccc3c(c2)sc2nc(-c4ccc(N(C)C)cc4)cn23)ccn1
Result: 19.1

Ask: Requested field: growth. Item: CN1CCN(c2ccc(C(=O)/C=C/c3cc(F)cc(C(F)(F)F)c3)cc2)CC1
Result: 92.2

Ask: Requested field: growth. Item: Oc1ccc(-c2nc3ccc(/C(=N\N=C\c4ccc(Cl)cc4)c4ccccc4)cc3[nH]2)cc1
Result: 63.5

Ask: Requested field: growth. Item: C#CCOc1ccccc1C(OC(=O)c1ccccc1)C(=O)NC(C)(C)C(C)(C)C (stereo not given)
Result: 89.4

Ask: Requested field: growth. Item: CC1=C(C)C(=O)C(Nc2ccc3c(c2)OCO3)=C(Br)C1=O
Result: 105
